# Target system: DNA gyrase (Staphylococcus aureus, UniProt P0A0K8+P20831)
# Construct: purchased Inspiralis, UK
# Sequence (P20831 whole entry): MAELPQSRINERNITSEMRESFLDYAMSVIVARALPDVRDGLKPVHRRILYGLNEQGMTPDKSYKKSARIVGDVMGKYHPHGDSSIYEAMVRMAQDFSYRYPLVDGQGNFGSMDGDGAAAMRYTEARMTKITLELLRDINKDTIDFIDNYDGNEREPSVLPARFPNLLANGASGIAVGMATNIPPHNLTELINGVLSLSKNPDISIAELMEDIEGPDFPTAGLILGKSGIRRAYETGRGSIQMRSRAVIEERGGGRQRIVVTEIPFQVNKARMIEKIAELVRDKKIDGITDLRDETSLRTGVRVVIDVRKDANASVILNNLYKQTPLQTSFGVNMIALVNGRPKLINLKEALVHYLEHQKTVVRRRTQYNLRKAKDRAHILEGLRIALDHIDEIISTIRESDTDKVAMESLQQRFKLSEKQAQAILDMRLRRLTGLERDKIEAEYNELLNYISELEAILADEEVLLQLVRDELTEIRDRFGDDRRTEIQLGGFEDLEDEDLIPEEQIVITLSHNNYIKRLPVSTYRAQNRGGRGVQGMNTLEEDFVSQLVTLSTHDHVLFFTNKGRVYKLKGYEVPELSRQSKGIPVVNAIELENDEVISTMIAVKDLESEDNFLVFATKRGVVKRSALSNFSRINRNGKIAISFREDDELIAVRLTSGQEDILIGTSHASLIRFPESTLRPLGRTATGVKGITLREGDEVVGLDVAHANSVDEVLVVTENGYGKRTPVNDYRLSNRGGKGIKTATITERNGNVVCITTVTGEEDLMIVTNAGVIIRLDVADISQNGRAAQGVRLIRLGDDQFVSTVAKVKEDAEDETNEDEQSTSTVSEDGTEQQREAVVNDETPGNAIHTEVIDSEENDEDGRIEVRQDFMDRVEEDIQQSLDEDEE
# Sequence (P0A0K8 whole entry): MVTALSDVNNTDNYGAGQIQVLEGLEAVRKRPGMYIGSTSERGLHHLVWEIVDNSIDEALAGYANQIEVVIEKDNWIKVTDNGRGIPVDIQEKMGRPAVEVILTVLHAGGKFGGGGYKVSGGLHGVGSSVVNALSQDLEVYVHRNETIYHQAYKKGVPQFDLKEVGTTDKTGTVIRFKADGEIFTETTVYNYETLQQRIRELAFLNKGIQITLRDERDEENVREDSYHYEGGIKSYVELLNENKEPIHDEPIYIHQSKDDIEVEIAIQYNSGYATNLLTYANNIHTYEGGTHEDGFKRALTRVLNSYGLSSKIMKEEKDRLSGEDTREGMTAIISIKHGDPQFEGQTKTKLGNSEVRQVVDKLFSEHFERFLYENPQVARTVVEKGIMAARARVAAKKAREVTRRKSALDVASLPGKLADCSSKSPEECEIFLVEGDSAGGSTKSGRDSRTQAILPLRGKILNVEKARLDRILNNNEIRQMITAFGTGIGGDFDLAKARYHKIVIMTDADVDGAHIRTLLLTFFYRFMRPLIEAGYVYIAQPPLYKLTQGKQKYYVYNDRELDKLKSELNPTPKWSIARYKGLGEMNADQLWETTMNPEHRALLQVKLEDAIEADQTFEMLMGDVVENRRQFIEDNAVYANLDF
# Assay name: DNA gyrase supercoiling assay (S. aureus)
# Assay type: biochemical
# Condition details: single concentration (200, 100 or 50 μM), in duplicate, versus the positive control (vehicle)
Where a name gives a salt, the structure may show the parent alone.
Test readout: % inhibition DNA gyrase

1. O=C(CN1CCC(Nc2cc(=O)oc3ccccc23)CC1)Nc1nccc2ccccc12 [Compound 117] ... n/a (n/a = not active)
2. O=c1cc(NCCCN2CCN(c3nccc4ccc(F)cc34)CC2)c2c(o1)CCNC2 [Compound 122, hydrochloride] ... n/a (n/a = not active)
3. O=C(NCCCN1CCN(c2nccc3ccccc23)CC1)c1cc(F)ccc1F [Compound 39, hydrochloride] ... 74%
